Each item that follows carries a reported viability, T/C.
Tested on: 519858-162-T-J1-PDC complex spheroid growth, % test/control
testMethodNotes: Anticancer human tumor 519858-162-T-J1-PDC patient-derived colon adenocarcinoma cell line growth inhibition [Asc]
assayConditions: second compound 0.3 µM; first compound 0.0316 µM; stronger effect = lower value
Excerpt: Multicellular complex tumor spheroid response to apoptosis pathway targeting inhibitors Alrizomadlin, Pelcitoclax, and Dasminapant in combination with a variety of drugs and investigational agents in selected tumor cell lines […] Compounds. […] If the clinical Cmax for an agent had not been determined, the highest concentration tested was 10 microM. […]

molecule: CNC(C)C(=O)NC1CN(S(=O)(=O)c2cccc(S(=O)(=O)N3CCC4CCC(C(=O)NC(c5ccccc5)c5ccccc5)N4C(=O)C(NC(=O)C(C)NC)C3)c2)CCC2CCC(C(=O)NC(c3ccccc3)c3ccccc3)N2C1=O (stereo not drawn) + CCN1C(C(=O)NC23CCC(C(=O)O)(CC2)CC3)C(c2cccc(Cl)c2F)C2(C(=O)Nc3cc(Cl)ccc32)C12CCCCC2
viability, T/C [%]: 81.2
//
molecule: CCN1CCN(Cc2ccc(Nc3ncc(F)c(-c4cc(F)c5nc(C)n(C(C)C)c5c4)n3)nc2)CC1 + CCN1C(C(=O)NC23CCC(C(=O)O)(CC2)CC3)C(c2cccc(Cl)c2F)C2(C(=O)Nc3cc(Cl)ccc32)C12CCCCC2
viability, T/C [%]: 69.1
//
molecule: COc1c(OCCCN2CCOCC2)ccc2c3n(c(=NC(=O)c4cnc(N)nc4)nc12)CCN3 + CCN1C(C(=O)NC23CCC(C(=O)O)(CC2)CC3)C(c2cccc(Cl)c2F)C2(C(=O)Nc3cc(Cl)ccc32)C12CCCCC2
viability, T/C [%]: 80.2

----------
Test system: 519858-162-T-J1-PDC complex spheroid growth, % test/control
testMethodNotes: Anticancer human tumor 519858-162-T-J1-PDC cell line growth inhibition [Asc];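 note: seven day drug exposure begun three days after spheroid seeding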
assayConditions: curve of first compound; second compound 0.3 µM

compound: C=C(F)C(=O)N1CCN(c2nc(OCC3CCCN3C)nc3c2CCN(c2cccc4cccc(Cl)c24)C3)CC1CC#N (configuration not stated) + CCN1C(C(=O)NC23CCC(C(=O)O)(CC2)CC3)C(c2cccc(Cl)c2F)C2(C(=O)Nc3cc(Cl)ccc32)C12CCCCC2
IC50: 9.03 µM
--
compound: C#Cc1c(F)ccc2cc(O)cc(-c3ncc4c(N5CC6CCC(C5)N6)nc(OCC56CCCN5CC(F)C6)nc4c3F)c12 (configuration not stated) + CCN1C(C(=O)NC23CCC(C(=O)O)(CC2)CC3)C(c2cccc(Cl)c2F)C2(C(=O)Nc3cc(Cl)ccc32)C12CCCCC2
IC50: > 10 µM

----------
Test system: 519858-162-T-J1-PDC complex spheroid growth, % test/control
testMethodNotes: Anticancer human tumor 519858-162-T-J1-PDC cell line growth inhibition [Asc];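 note: seven day drug exposure begun three days after spheroid seeding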;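 for viability, T/C: 100% = DMSO vehicle wells and lower values mean less viable spheroid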
assayConditions: second compound 0.316 µM; first compound 0.949 µM; stronger effect = lower value
quantityKind: viability, T/C (%)

compound: Cc1nc(N2CCC3(CC2)COC(C)C3N)c(CO)nc1Sc1ccnc(N)c1Cl (centres undefined) + Cc1c(S(C)(=O)=O)c(-c2cc(F)cc(N3CCN(c4ccc(NS(=O)(=O)c5ccc(NC(CCN6CCC(C(=O)OCCCP(=O)(O)O)CC6)CSc6ccccc6)c(S(=O)(=O)C(F)(F)F)c5)cc4)CC3)c2)c(-c2ccc(Cl)cc2)n1C(C)C
displayUnit: %
recordedResult: 68.4
//
compound: CCN1C(C(=O)NC23CCC(C(=O)O)(CC2)CC3)C(c2cccc(Cl)c2F)C2(C(=O)Nc3cc(Cl)ccc32)C12CCCCC2 (centres undefined) + Cc1c(S(C)(=O)=O)c(-c2cc(F)cc(N3CCN(c4ccc(NS(=O)(=O)c5ccc(NC(CCN6CCC(C(=O)OCCCP(=O)(O)O)CC6)CSc6ccccc6)c(S(=O)(=O)C(F)(F)F)c5)cc4)CC3)c2)c(-c2ccc(Cl)cc2)n1C(C)C
displayUnit: %
recordedResult: 65.7
//
compound: CCN1C(C(=O)NC23CCC(C(=O)O)(CC2)CC3)C(c2cccc(Cl)c2F)C2(C(=O)Nc3cc(Cl)ccc32)C12CCCCC2 (centres undefined) + CNC(C)C(=O)NC1CN(S(=O)(=O)c2cccc(S(=O)(=O)N3CCC4CCC(C(=O)NC(c5ccccc5)c5ccccc5)N4C(=O)C(NC(=O)C(C)NC)C3)c2)CCC2CCC(C(=O)NC(c3ccccc3)c3ccccc3)N2C1=O
displayUnit: %
recordedResult: 81.3
//
compound: Cc1nc(N2CCC3(CC2)COC(C)C3N)c(CO)nc1Sc1ccnc(N)c1Cl (centres undefined) + CNC(C)C(=O)NC1CN(S(=O)(=O)c2cccc(S(=O)(=O)N3CCC4CCC(C(=O)NC(c5ccccc5)c5ccccc5)N4C(=O)C(NC(=O)C(C)NC)C3)c2)CCC2CCC(C(=O)NC(c3ccccc3)c3ccccc3)N2C1=O
displayUnit: %
recordedResult: 42.8

Value source: PubChem BioAssay AID1963421
